- Test system: K562-αvβ3 cells
- ASSAY_EXPLANATION: Binding of AgRP mutant 7A to K562-αvβ3 cells
- RUN_PARAMETERS: read-out: KD against K562-αvβ3 cells
- Description: The αvβ3 integrin receptor is over-expressed on many solid tumor cells making it an important cancer target. The Agouti related protein (AgRP), a cystine-knot peptide, contains four disulfide bonds and four solvent-exposed loops. It was engineered to target αvβ3 integrin receptors with pM binding affinity.
Ends that are not written are not given here.
PROPERTY_MEASURED: Kd (nM)
Provide the reading as a plain figure in nM.

Record AgRP mutant, SEQ ID NO: 36 GCVRLHESCLGQQVPCCDPAATCYCSGRGDNDLVCYCR (ends and bridges not checked; cysteine pairing not given here) [AgRp7A] . Reported Kd: 0.89
